Target: PKC delta kinase (Homo sapiens, UniProt Q05655)
Sequence (Q05655 whole entry): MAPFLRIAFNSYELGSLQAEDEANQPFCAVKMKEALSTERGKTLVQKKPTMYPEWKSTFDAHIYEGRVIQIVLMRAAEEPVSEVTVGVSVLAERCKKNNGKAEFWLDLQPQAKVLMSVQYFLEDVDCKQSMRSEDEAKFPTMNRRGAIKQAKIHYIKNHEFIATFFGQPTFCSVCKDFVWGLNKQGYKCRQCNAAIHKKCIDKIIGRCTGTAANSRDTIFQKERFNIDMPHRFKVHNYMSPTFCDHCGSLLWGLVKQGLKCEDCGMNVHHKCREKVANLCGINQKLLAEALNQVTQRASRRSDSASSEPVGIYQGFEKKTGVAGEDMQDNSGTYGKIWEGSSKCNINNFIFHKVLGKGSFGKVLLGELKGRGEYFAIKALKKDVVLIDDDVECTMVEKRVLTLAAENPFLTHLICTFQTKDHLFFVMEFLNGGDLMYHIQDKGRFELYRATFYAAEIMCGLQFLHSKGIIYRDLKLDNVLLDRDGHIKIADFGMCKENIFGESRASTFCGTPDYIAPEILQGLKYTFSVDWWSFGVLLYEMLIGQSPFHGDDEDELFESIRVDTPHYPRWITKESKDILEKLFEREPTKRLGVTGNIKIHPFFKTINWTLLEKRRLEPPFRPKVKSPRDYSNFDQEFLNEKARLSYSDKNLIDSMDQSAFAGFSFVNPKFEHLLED
Test: PKC delta kinase inhibition, coupled-enzyme (NADH absorbance) assay, Ki
Format: biochemical
Conditions: 150 μM ATP, 46 nM PKC delta kinase, 30° C.; read-out: Ki PKC delta
pKi: −log10 of the molar value.
In this section, each of the compounds is paired with its reported pKi.

{"columns": ["Compound", "Reported"],
 "data": [
  ["FC(F)(F)c1ccc(N2CCN[C@@H](CC3CC3)C2)nc1-c1n[nH]c2ncccc12 [Compound 165]", "< 5.90"]
]}

Turning to the following compound.
Recorded pKi of CCC1CN(c2ccc(F)c(-c3n[nH]c4ncccc34)n2)CCC1C#N (centres unmarked) [Compound 407] , please.
> 5.55

###

Biological target: PKC delta kinase (Homo sapiens)
Assay: PKC delta kinase inhibition, coupled-enzyme (NADH absorbance) assay, Ki
Format: biochemical
Settings: 150 μM ATP, 46 nM PKC delta kinase, 30° C.; read-out: Ki PKC delta
In this section, each of the compounds is paired with its reported Ki.

Recorded Ki of CC(C)C[C@H]1CN(c2ccc(F)c(-c3n[nH]c4ncccc34)n2)C[C@@H](C)N1 , please.
< 500 nM

Try the compound O=C1CN(c2ccc(C(F)(F)F)c(-c3n[nH]c4ncccc34)n2)CCN1
> 1250 nM

Try the compound Cc1ccccc1C1CN(c2ccc(C(F)(F)F)c(-c3n[nH]c4ncccc34)n2)CCN1 (centres unmarked)
> 1250 nM

Try the compound CC(C)C(C)(O)C1CN(c2ccc(F)c(-c3n[nH]c4ncccc34)n2)CCN1C (centres unmarked) [Compound 229]
> 1250 nM

Try the compound COC(C)C1CN(c2ccc(C(F)(F)F)c(-c3n[nH]c4ncccc34)n2)CCN1 (centres unmarked)
> 1250 nM

Try the compound C=C(F)c1cc(-c2n[nH]c3ncccc23)nc(N2CCN[C@@H](CC(C)C)C2)c1
< 2800 nM

Try the compound CC(C)C[C@@H]1C[C@@H](N)CN(c2ccc(F)c(-c3n[nH]c4ncccc34)n2)C1
< 2800 nM

Try the compound CC(C)C[C@@]1(F)CN(c2ccc(F)c(-c3n[nH]c4ncccc34)n2)CC[C@H]1O
> 1250 nM

Try the compound OCc1cc(-c2n[nH]c3ncccc23)nc(N2CCNCC2)c1
< 2800 nM

Try the compound CCC[C@H]1CN(c2ccc(F)c(-c3n[nH]c4ncccc34)n2)C[C@@H]1N
> 1250 nM

Try the compound CC(C)C(C)(O)C1CN(c2ccc(F)c(-c3n[nH]c4ncccc34)n2)CCN1 (centres unmarked) [Compound 205]
> 1250 nM

Try the compound CC1(N)CCCN(c2ccc(F)c(-c3n[nH]c4ncccc34)n2)C1 (centres unmarked)
> 1250 nM

Try the compound CCC[C@H]1CN(c2cccc(-c3n[nH]c4ncccc34)n2)CCCN1
< 500 nM

Try the compound CCC[C@H]1CN(c2ccc(C(F)(F)F)c(-c3n[nH]c4ncccc34)n2)C[C@@H]1N
> 1250 nM

Try the compound Cc1cc(-c2n[nH]c3ncccc23)nc(N2CCC(N)CC2)c1
> 1250 nM

Try the compound CC(C)C(O)[C@@H]1CCCN(c2ccc(F)c(-c3n[nH]c4ncccc34)n2)C1 (some centres unmarked)
> 1250 nM

Try the compound c1ccc(-c2ccc(N3CCNCC3)nc2-c2n[nH]c3ncccc23)cc1
> 2000 nM

###

In this section, each of the compounds is paired with its reported pKi.
Biological target: PKC alpha kinase (Homo sapiens, UniProt P17252)
Assay: PKC alpha kinase inhibition, coupled-enzyme (NADH absorbance) assay, Ki
Format: biochemical
Conditions: 130 μM ATP, 4.5 nM PKC alpha kinase, 30° C.
pKi: −log10 of the molar value.

{"columns": ["Compound", "pKi"],
 "data": [
  ["NCC1CCCN(c2cccc(-c3n[nH]c4ncccc34)n2)C1 (centres unmarked)", "> 5.55"],
  ["CC(C)(C)C(N)C1CCCN(c2ccc(F)c(-c3n[nH]c4ncccc34)n2)C1 (centres unmarked) [Compound 307]", "> 6.30"],
  ["CC(C)C[C@@]1(O)CN(c2ccc(C(F)(F)F)c(-c3n[nH]c4ncccc34)n2)CC[C@H]1N", "> 6.30"],
  ["CC1(C)CC1(O)C1CN(c2ccc(F)c(-c3n[nH]c4ncccc34)n2)CCN1 (centres unmarked) [Compound 382]", "< 5.90"],
  ["OC1(c2cccc(-c3n[nH]c4ncccc34)n2)CCNCC1", "< 5.90"],
  ["NCC1CCN(c2cc(C(F)(F)F)cc(-c3n[nH]c4ncccc34)n2)CC1", "< 5.90"]
]}

Recorded pKi of FC(F)(F)c1ccc(N2CCNC(C(F)(F)F)C2)nc1-c1n[nH]c2ncccc12 (centres unmarked) , please.
< 5.90

Try the compound CC(C)(O)CC1CN(c2ccc(C(F)(F)F)c(-c3n[nH]c4ncccc34)n2)CCN1 (centres unmarked)
< 5.90

Try the compound OC1(C2CN(c3cccc(-c4n[nH]c5ncccc45)n3)CCN2)COC1 (centres unmarked)
< 5.90

Try the compound FC(F)(F)c1ccc(N2CCNC(c3ccccc3)C2)nc1-c1n[nH]c2ncccc12 (centres unmarked)
< 5.90

Try the compound CC(C)C[C@@H]1C[C@@H](N)CN(c2ccc(F)c(-c3n[nH]c4ncccc34)n2)C1
< 5.90

Try the compound CC(C)CC1CN(c2ccc(C(F)(F)F)c(-c3n[nH]c4ncccc34)n2)CCC1CCN (centres unmarked)
< 5.90

Try the compound CC(O)(C1CC1)C1CN(c2ccc(F)c(-c3n[nH]c4ncccc34)n2)CCN1 (centres unmarked)
< 5.90

###

Biological target: PKC theta kinase (Homo sapiens)
Endpoint: Ki

{"columns": ["Molecule", "Ki"],
 "data": [
  ["NCC1CCCN(c2ccc(F)c(-c3n[nH]c4ncccc34)n2)C1 (centres unmarked) [Compound 327]", "< 500 nM"],
  ["CC(C)(N)C1CCN(c2ccc(F)c(-c3n[nH]c4ncccc34)n2)C1 (centres unmarked) [Compound 360]", "< 500 nM"],
  ["CC(C)C[C@H]1CN(c2ccc(C(F)(F)F)c(-c3n[nH]c4ncccc34)n2)CC[C@H]1O [Compound 91]", "< 500 nM"],
  ["CCCC1CN(c2ccc(Cl)c(-c3n[nH]c4ncccc34)n2)CCN1 (centres unmarked) [Compound 123]", "< 50 nM"],
  ["OC1CCN(c2cccc(-c3n[nH]c4ncccc34)n2)CC1 [Compound 22]", "> 700 nM"]
]}

API: value(readout=Ki, system=PKC theta kinase (Homo sapiens)) for record NC(=O)C1CN(c2ccc(C(F)(F)F)c(-c3n[nH]c4ncccc34)n2)CCN1 (centres unmarked) [Compound 213]
> 700 nM

Try the molecule CC(C)C[C@@]1(F)CN(c2ccc(C(F)(F)F)c(-c3n[nH]c4ncccc34)n2)CC[C@H]1O [Compound 198]
< 500 nM

Try the molecule NCc1cccc(-c2ccc(C(F)(F)F)c(-c3n[nH]c4ncccc34)n2)c1 [Compound 306]
> 700 nM

Try the molecule CC(C)CC1(CO)CN(c2ccc(C(F)(F)F)c(-c3n[nH]c4ncccc34)n2)CCC1N (centres unmarked) [Compound 411]
< 500 nM

Try the molecule CC(C)C[C@H]1CN(c2cccc(-c3n[nH]c4ncccc34)n2)CC[C@@H]1N [Compound 130]
< 50 nM

Try the molecule C[C@@H]1CN(c2ccc(C(F)(F)F)c(-c3n[nH]c4ncccc34)n2)CCN1 [Compound 117]
< 500 nM

Try the molecule NCC1CN(c2ccc(F)c(-c3n[nH]c4ncccc34)n2)CCO1 (centres unmarked) [Compound 395]
< 500 nM

Try the molecule CC(C)CC1(CN)CN(c2ccc(C(F)(F)F)c(-c3n[nH]c4ncccc34)n2)C1 [Compound 413]
> 700 nM

Try the molecule COc1ccccc1C1CN(c2ccc(C(F)(F)F)c(-c3n[nH]c4ncccc34)n2)CCN1 (centres unmarked) [Compound 114]
< 500 nM

Try the molecule FC(F)(F)c1ccc(N2CCN[C@@H](Cc3ccccc3)C2)nc1-c1n[nH]c2ncccc12 [Compound 121]
< 500 nM

Try the molecule CC(C)C(C)(O)C1CN(c2ccc(F)c(-c3n[nH]c4ncccc34)n2)CCN1C(=O)OC(C)(C)C (centres unmarked) [Compound 424]
> 700 nM

Try the molecule NC1CCN(c2ccc(C(F)(F)F)c(-c3n[nH]c4ncccc34)n2)CC1 [Compound 126]
< 500 nM

###

In this section, each of the molecules is paired with its reported pKi.
Target: PKC theta kinase (Homo sapiens, UniProt Q04759)
Sequence (Q04759 whole entry): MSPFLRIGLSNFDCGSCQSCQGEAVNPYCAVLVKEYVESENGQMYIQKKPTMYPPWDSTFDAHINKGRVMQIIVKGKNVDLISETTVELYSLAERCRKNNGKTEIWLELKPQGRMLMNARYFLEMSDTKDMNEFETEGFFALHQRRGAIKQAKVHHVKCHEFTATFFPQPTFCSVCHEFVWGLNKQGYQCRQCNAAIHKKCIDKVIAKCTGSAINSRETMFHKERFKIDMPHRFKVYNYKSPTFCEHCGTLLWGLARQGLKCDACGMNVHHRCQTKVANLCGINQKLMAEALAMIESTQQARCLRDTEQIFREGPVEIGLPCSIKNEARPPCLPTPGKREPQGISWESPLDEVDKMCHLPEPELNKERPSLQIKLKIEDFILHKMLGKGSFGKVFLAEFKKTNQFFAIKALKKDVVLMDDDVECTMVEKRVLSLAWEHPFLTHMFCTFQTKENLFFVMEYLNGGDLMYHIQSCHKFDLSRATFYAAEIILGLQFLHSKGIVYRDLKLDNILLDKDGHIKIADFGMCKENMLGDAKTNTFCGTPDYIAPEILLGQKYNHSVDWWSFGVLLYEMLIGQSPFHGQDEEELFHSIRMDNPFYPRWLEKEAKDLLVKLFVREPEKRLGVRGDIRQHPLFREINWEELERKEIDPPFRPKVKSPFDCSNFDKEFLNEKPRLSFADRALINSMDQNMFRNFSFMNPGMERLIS
pKi: −log10 of the molar value.

Worked cases, answers included:
{"columns": ["Molecule", "pKi"],
 "data": [
  ["CC(C)C(C)(O)C1CN(c2cc(CO)cc(-c3n[nH]c4ncccc34)n2)CCN1 (stereo not drawn) [Compound 454]", "> 7.30"],
  ["CCC(N)(CC)C1CCCN(c2ccc(F)c(-c3n[nH]c4ncccc34)n2)C1 (stereo not drawn) [Compound 377]", "> 6.30"],
  ["Cc1cccc(C2CN(c3ccc(C(F)(F)F)c(-c4n[nH]c5ncccc45)n3)CCN2)c1 (stereo not drawn) [Compound 134]", "> 7.30"],
  ["CC(C)CC1CN(c2ccc(C(F)(F)F)c(-c3n[nH]c4ncccc34)n2)CCC1CN (stereo not drawn) [Compound 350]", "> 7.30"],
  ["CC(=O)NCC1CCCN(c2ccc(F)c(-c3n[nH]c4ncccc34)n2)C1 (stereo not drawn) [Compound 303]", "< 6.15"],
  ["Fc1cccc(C2CN(c3ccc(C(F)(F)F)c(-c4n[nH]c5ncccc45)n3)CCN2)c1 (stereo not drawn) [Compound 115]", "> 7.30"],
  ["CC(C)(O)CC1CN(c2cccc(-c3n[nH]c4ncccc34)n2)CCN1 (stereo not drawn) [Compound 36]", "> 7.30"],
  ["CN1CCN(c2cccc(-c3n[nH]c4ncccc34)n2)CC1 [Compound 26]", "> 6.30"]
]}

Recorded pKi of CCC(C)(O)C1CN(c2ccc(F)c(-c3n[nH]c4ncccc34)n2)CCN1 (stereo not drawn) [Compound 244] , please.
> 6.30

Try the molecule OC1(C2CN(c3ccc(F)c(-c4n[nH]c5ncccc45)n3)CCN2)CCC1 (stereo not drawn) [Compound 240]
> 7.30

Try the molecule CC(C)CC1CN(c2ccc(F)c(-c3n[nH]c4ncccc34)n2)CCC1C#N (stereo not drawn) [Compound 370]
> 7.30

Recorded values, source patent US9193722B2.
